- assayed-target: T1, cynomolgus monkey TG2 (cynomolgus monkey, UniProt A0A2K5VXI8 1-687)
- T1 construct: Bought recombinant protein; also called cynomogulus monkey TG2; cyano TG2
- T1 sequence: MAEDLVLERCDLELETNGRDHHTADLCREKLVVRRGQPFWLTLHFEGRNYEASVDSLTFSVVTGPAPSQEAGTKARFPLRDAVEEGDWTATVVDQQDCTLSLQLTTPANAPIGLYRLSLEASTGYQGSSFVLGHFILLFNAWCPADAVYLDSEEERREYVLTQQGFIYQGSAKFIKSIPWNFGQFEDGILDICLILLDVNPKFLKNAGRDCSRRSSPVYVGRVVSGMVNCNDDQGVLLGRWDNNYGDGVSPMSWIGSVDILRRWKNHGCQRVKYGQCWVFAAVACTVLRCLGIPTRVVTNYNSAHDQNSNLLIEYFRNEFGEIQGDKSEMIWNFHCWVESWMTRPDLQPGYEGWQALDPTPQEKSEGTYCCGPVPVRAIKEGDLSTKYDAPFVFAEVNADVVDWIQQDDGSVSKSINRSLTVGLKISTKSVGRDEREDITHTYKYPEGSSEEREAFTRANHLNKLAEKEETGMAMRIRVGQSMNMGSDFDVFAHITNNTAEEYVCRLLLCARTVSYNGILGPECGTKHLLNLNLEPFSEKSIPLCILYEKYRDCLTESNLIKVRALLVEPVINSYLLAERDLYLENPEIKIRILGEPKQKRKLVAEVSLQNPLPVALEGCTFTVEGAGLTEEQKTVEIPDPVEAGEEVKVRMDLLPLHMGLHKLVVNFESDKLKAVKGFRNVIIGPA
- protocol-notes: SPR (Biacore T200), antibody captured on anti-human IgG1 Fc chip, TG2 injected; calcium condition not marked in the row
measurement-kind: koff

Output measured koff for this item: hBB001AA humanised BB7 antibody (antibody, V domains shown, captured by anti-human IgG1 (Fc); also called hBB01AA) VH: EVQLLESGGGLVQPGGSLRLSCAASGFTFSSSAMSWVRQAPGKGLEWVSTISSGGRSTYYPDSVKGRFTISRDNSKNTLYLQMNSLRAEDTAVYYCAKLISPYWGQGTLVTVSS VL: DIQMTQSPSSLSASVGDRVTITCKASQDINSYLTWFQQKPGKAPKSLIYLTNRLMDGVPSRFSGSGSGTDFFLTISSLQPEDFATYYCLQYVDFPYTFGQGTKVEIK < 1e-05 s⁻¹
